Target: T1, human CCR8 (human, UniProt P51685 1-355)
T1 construct: whole, on cells; also called hCCR8
T1 sequence (P51685 whole entry): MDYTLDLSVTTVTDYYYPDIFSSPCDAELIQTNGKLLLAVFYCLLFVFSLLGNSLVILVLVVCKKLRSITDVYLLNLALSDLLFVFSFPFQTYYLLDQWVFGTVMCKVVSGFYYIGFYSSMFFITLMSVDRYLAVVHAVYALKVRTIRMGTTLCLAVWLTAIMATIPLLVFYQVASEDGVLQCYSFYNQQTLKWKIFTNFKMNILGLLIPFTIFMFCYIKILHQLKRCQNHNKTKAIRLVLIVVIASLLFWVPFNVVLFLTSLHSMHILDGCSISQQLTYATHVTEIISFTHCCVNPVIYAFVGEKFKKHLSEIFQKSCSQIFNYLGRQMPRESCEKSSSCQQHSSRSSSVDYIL
Test: FACS on HEK293-human CCR8 cells
Experimental: A total of 5×10⁴ cells for each well were seeded in 96-well plates and washed with FACS buffer (DPBD containing 1.5% FBS) for once. Antibodies were prepared with 3-fold serial dilution ranging from 100 nM to 0.0017 nM in FACS buffer. Cells were incubated with 50 μL of diluted antibodies at 4° C. for 1 hour. […] After primary antibody incubation, cells were washed for 3 times by FACS buffer. […]
Recorded pEC50 values for a group of binders are listed next.
The quantity pEC50 is defined as the negative base-10 logarithm of the molar concentration.

Hu149-1 (antibody, V domains shown, humanized IgG, detected with anti-human IgG) VH: EVQLVESGGGLVQPGGSLKLSCAASGFTFNTYAMNWVRQASGKGLEWVGRIRSKSNFYATYYAASVKGRFTISRDDSKNTAYLQMNSLKTEDTAVYYCVRGRDYGSSYAMDYWGQGTLVTVSS VL: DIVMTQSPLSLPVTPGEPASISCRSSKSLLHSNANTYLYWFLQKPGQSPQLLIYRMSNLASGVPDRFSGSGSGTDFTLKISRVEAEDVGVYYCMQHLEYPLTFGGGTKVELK | 9.27
CM149 (antibody, V domains shown, CM149 is not defined in words; also called CM149 HuIgG1; parental antibody CM149) VH: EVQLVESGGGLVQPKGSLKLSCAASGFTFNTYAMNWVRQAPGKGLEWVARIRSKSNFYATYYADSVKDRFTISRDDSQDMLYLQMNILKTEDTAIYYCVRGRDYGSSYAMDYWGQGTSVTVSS VL: DIVMTQAAPSVPVTPGESVSISCRSSKSLLHSNANTYLYWFLQRPGQSPQLLIYRMSNLASGVPDRFSGSGSGTAFTLRISRVEAEDVGVYYCMQHLEYPLTFGAGTKLELK | 9.85

Now for the binder whose pEC50 we want.
query: Reported pEC50, binder Hu149-3 (antibody, V domains shown, humanized IgG) VH: EVQLVESGGGLVQPGGSLKLSCAASGFTFNTYAMNWVRQASGKGLEWVGRIRSKSNFYATAYAASVKGRFTISRDDSKNTAYLQMNSLKTEDTAVYYCVRGRDYGSSYAMDYWGQGTLVTVSS VL: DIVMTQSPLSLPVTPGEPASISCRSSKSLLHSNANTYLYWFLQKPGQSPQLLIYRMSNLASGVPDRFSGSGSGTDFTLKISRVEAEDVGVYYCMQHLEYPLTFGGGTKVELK : ____
result: 9.71
